Test system: johnsongrass
Assay: Test F preemergence test
Assay type: in vivo, Sorghum halepense
Settings: 62 g ai/ha, Preemergence; scale 0 to 100
quantityName: Johnsongrass plant response rating
Lab note: jot the number down without any unit.

Incoming: Would you kindly share the measured Johnsongrass plant response rating for CC(Oc1c(C[S+]([O-])c2cccc[n+]2[O-])c(C(F)(F)F)nn1C)C(F)(F)F (centres unmarked) [Compound 77] ?
Outgoing: 85

Incoming: Would you kindly share the measured Johnsongrass plant response rating for Cc1cc[n+]([O-])c([S+]([O-])Cc2c(C(F)(F)F)nn(C)c2Cl)c1 (racemic) [Compound 20] ?
Outgoing: 90

Incoming: Would you kindly share the measured Johnsongrass plant response rating for CCn1nc(C(F)(F)F)c(C[S+]([O-])c2cc(C)cc[n+]2[O-])c1OCC(F)(F)F (racemic) [Compound 66] ?
Outgoing: 90

Incoming: Would you kindly share the measured Johnsongrass plant response rating for CC(c1c(C(F)(F)F)nn(C)c1OC(F)F)S(=O)(=O)c1cccc[n+]1[O-] (centres unmarked) [Compound 5] ?
Outgoing: 100

Incoming: Would you kindly share the measured Johnsongrass plant response rating for Cn1nc(C(F)(F)F)c(C[S+]([O-])c2ccc(F)c[n+]2[O-])c1OCC(F)(F)F (centres unmarked) [Compound 67] ?
Outgoing: 75

Incoming: Would you kindly share the measured Johnsongrass plant response rating for Cn1nc(C(F)(F)F)c(CS(=O)(=O)c2cccc[n+]2[O-])c1OCC(F)(F)F [Compound 29] ?
Outgoing: 100

Incoming: Would you kindly share the measured Johnsongrass plant response rating for Cc1cc[n+]([O-])c(S(=O)(=O)Cc2c(C(F)(F)F)nn(C)c2OCC(F)(F)F)c1 [Compound 31] ?
Outgoing: 100

Incoming: Would you kindly share the measured Johnsongrass plant response rating for Cc1cc[n+]([O-])c([S+]([O-])Cc2c(C(F)(F)F)nn(C)c2OCC(F)(F)F)c1 (racemic) [Compound 30] ?
Outgoing: 80

Incoming: Would you kindly share the measured Johnsongrass plant response rating for Cn1nc(C(F)(F)F)c(C[S+]([O-])c2cccc[n+]2[O-])c1OCC(F)(F)F (racemic) [Compound 28] ?
Outgoing: 100

Incoming: Would you kindly share the measured Johnsongrass plant response rating for Cn1nc(C(F)(F)F)c(C[S+]([O-])c2ccc(Cl)c[n+]2[O-])c1OCC(F)(F)F (racemic) [Compound 62] ?
Outgoing: 100

Incoming: Would you kindly share the measured Johnsongrass plant response rating for Cn1nc(C(F)(F)F)c(CS(=O)(=O)c2cccc[n+]2[O-])c1OC(F)F [Compound 4] ?
Outgoing: 95
